- Test system: ATP;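 further: ATP exposure 15 min at 22 °C before imaging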
- assay remarks: switch fluorescence ratio, 500 uM ATP over buffer (Cy3 cluster intensity, sum of 5 cycles each) (fold (ratio)); higher = stronger signal-on switching upon ATP binding; sequences stand for … in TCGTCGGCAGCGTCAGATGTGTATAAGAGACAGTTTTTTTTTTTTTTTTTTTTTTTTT…TC
- experimental parameters: aptamer strand: ATP DNA aptamer (quencher-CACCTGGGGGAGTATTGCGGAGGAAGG + anchor), 100 nM annealed; ATP concentration: 500 uM
metric: switch fluorescence ratio
Answers are plain numbers.

Okay, here is my list. What is switch fluorescence ratio for each of these?
1. GATCATAGGG
2. TTATGTAATC

Out:
1: 1.01; 2: 1.19

Would you mind giving switch fluorescence ratio for every sequence in the list below?
1. TTGGAATAGA
2. CTGTCCTAAT
3. TGAAGGGCGT
4. TCCACGATTA
5. ACGGCGCTTG
6. TAGATTGGGT

Out:
[0.999, 1.01, 0.993, 1.11, 1.05, 0.976]

Count: 2. Required value per item: switch fluorescence ratio.
1. TTTCCGAATG
2. CGGCCGTACG

Out:
[1.13, 1.01]

* * *

Consider the following sequences; for each one, report its switch fluorescence ratio.
- Test system: ATP;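 further: ATP exposure 15 min at 22 °C before imaging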
- assay remarks: switch fluorescence ratio, 500 uM ATP over buffer (Cy3 cluster intensity, sum of 5 cycles each) (fold (ratio)); higher = stronger signal-on switching upon ATP binding; sequences stand for … in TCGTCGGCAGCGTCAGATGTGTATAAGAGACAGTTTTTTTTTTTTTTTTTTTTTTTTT…TC
- experimental parameters: aptamer strand: ATP DNA aptamer (quencher-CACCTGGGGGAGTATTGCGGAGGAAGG + anchor), 100 nM annealed; ATP concentration: 500 uM
Give bare numbers.

INSERT INTO assay_data (polymer_sequence, metric, recorded_value) VALUES
  ('TCACCATTCA', 'switch fluorescence ratio', 1.05),
  ('AACGGGCCAG', 'switch fluorescence ratio', 0.997),
  ('AAGGATTCCA', 'switch fluorescence ratio', 0.981),
  ('TTAAGAACCT', 'switch fluorescence ratio', 1.31);

Take each entry in turn and give its switch fluorescence ratio.
1. TATTCGGCTG
2. GAGGATGGGA

Out:
1. 0.997
2. 0.98

* * *

- Test system: ATP;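 further: ATP exposure 15 min at 22 °C before imaging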
- assay remarks: switch fluorescence ratio, 500 uM ATP over buffer (Cy3 cluster intensity, sum of 5 cycles each) (fold (ratio)); higher = stronger signal-on switching upon ATP binding; sequences stand for … in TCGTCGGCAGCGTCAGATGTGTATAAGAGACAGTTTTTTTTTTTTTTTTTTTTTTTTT…TC
- experimental parameters: aptamer strand: ATP DNA aptamer (quencher-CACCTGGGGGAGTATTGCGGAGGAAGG + anchor), 100 nM annealed; ATP concentration: 500 uM
Would you mind telling me the reported switch fluorescence ratio of each entry?
Give bare numbers.

Examples from the recorded data:
INSERT INTO measurements (polymer_sequence, metric, recorded_value) VALUES
  ('ACGGTGATCA', 'switch fluorescence ratio', 1.03),
  ('GTATGTGGGG', 'switch fluorescence ratio', 0.996),
  ('CGTTGAATAT', 'switch fluorescence ratio', 1.01),
  ('GAAAATAACG', 'switch fluorescence ratio', 1.11),
  ('ATATTCTAGA', 'switch fluorescence ratio', 0.989),
  ('AGCAGGTTGT', 'switch fluorescence ratio', 1.05),
  ('GGATTTTATA', 'switch fluorescence ratio', 1.01),
  ('TGATGAGTCG', 'switch fluorescence ratio', 1.02),
  ('TGGTGGGTGC', 'switch fluorescence ratio', 1.04),
  ('AGATGTTTCC', 'switch fluorescence ratio', 1.04);

Hi! Can you tell me switch fluorescence ratio for each of these sequences?
1. TTTGAAAATA
2. GCGCTTCAA
3. TGGAAATTTT
4. CTGAGGGGCG
5. AACTTGGCAT

Out:
1. 0.962
2. 0.971
3. 1
4. 1.04
5. 1.02

# return switch fluorescence ratio for each item in the list
1. TCCAACTGCT
2. GCTGAAAGGC
3. GCGTTAACTC
4. TTGTATAAA
5. TGGGCGGGGC
6. GTTTGACACT
7. TAGCAAGTGG
8. TACGTGCCTC

Out:
[1.04, 1.09, 1.08, 1, 0.998, 0.99, 0.998, 0.99]

List reported switch fluorescence ratio for each of these sequences:
1. CAGACGAGGC
2. CGGGTTCTGG
3. TGGGCG
4. TACCAGGGTA
5. CCGTGGAAAC
6. TTATACGCTT

Out:
1.04
0.989
0.994
1.05
1.14
1.1

Kindly give each listed record's switch fluorescence ratio.
1. TTTTGTCAAG
2. TAACAAGGGT
3. ATGGCAGCAT
4. GTAATCATTT
5. GGGTCTGGTA
6. GACGCAGGTG

Out:
1. 1.01
2. 1
3. 1.01
4. 0.967
5. 1.02
6. 2.5
